Tested on: KB-V1
Experiment: Cytotoxicity against human KBV1 cells
Type: functional, cell-based
pIC50: −log10 of the molar value.
readout_kind: pIC50

INSERT INTO assay_data (compound, value) VALUES
  ('C/C(=C\c1csc(C)n1)[C@@H]1C[C@@H]2O[C@]2(C)CCC[C@H](C)[C@H](O)[C@@H](C)C(=O)C(C)(C)[C@@H](O)CC(=O)O1 [PATUPILONE]', '7.04 to 8.52');

====

Assay: Antiproliferative activity against human 8226/LR-5 cells assessed as inhibition of cell proliferation
Type: functional, cell-based
readout_kind: IC50

INSERT INTO results (compound, value) VALUES
  ('C/C(=C\c1csc(C)n1)[C@@H]1C[C@@H]2O[C@]2(C)CCC[C@H](C)[C@H](O)[C@@H](C)C(=O)C(C)(C)[C@@H](O)CC(=O)O1 [PATUPILONE]', '1 to 10 nM');
